Hello, the source for this data is PubChem BioAssay (NCI), in case you need it.

For each of the compounds below, state its TGI.
System: OVCAR-8 ovarian
protocol details: NCI tumour cell line growth inhibition, 48 h

In one line, give reported TGI of the entry COc1cc(C2C=C(C)N=C3SC=C(C)N32)cc(OC)c1OC (stereo not given) .
10.1 µM

Identify the reported TGI for the following entry. CC(C)(C)c1cc(Cc2ccc(S(C)(=O)=O)cc2)c(O)c(C(C)(C)C)c1
28.1 µM

Dear colleague, please send me the reported TGI for Nc1nc(N)c(N=Nc2ccccc2)c(=O)[nH]1 when you can.
> 100 µM

Answer with reported TGI of O=c1nc(N2CCCCC2)sc2[nH]c3ccccc3c12
> 100 µM

Provide TGI value for the following compound: C=C1CC[C@@](C)(c2cc(Br)c(C)cc2OC(C)=O)[C@H]1C
27.8 µM

Retrieve TGI measured for COC1(OC)CCCCCCCCC(OC)(OC)CCCCCCCC1 and print it.
> 100 µM

Indicate the recorded TGI value for this compound: Cc1ccc(/C=C(/C#N)n2nnc3cccc(F)c32)cc1
> 100 µM

Provide one value: measured TGI of C[n+]1c(-c2ccc(/C=N\Nc3ccnc(N/N=C/c4ccc(-c5cn6ccsc6[n+]5C)cc4)n3)cc2)cn2ccsc21
> 100 µM

Name the recorded TGI of the compound listed here: CN(C)C12C=CC=CC3=C(c4ccccc4)C(c4ccccc4)=C(c4ccccc4)C31c1ccccc1C2 (stereo not given)
> 100 µM

Write down TGI measured for item CC1=C(C)C2(C#N)C(=O)N3C(=NC(c4ccco4)NC3c3ccco3)C2(C#N)C(c2ccco2)N1 (stereo not given)
> 100 µM

Determine its reported TGI: COc1ccc(N=Nc2c(-c3ccccc3)nn(C(=O)CC(=O)Nc3ccc(OC)cc3)c2-c2ccccc2)cc1
> 100 µM

Tell me its TGI given CCCN(CCCC(NC(C)=O)C(=O)NCc1ccccc1)C(=O)N(C)N=O (stereo not given) as the entry.
> 100 µM

Fill in TGI for record Nc1nc2c(ncn2C2OC(CO)C(O)C2O)c(=O)o1 (stereo not given)
> 100 µM

Input Cc1ccc(S(=O)(=O)NC(=O)NC(CCCCN)C(=O)O)cc1 (stereo not given) , output reported TGI.
> 100 µM

Supply recorded TGI for CCOP(=O)(OCC)C(Cc1c[nH]c2ccccc12)C(=O)O (stereo not given) here.
> 100 µM

Supply reported TGI belonging to this compound: N#Cc1ncc(-c2ccc(C(F)(F)F)cc2)c(NC2CCCCCC2)n1
> 100 µM

Specify reported TGI for the compound shown: [N-]=[N+]=NC1(Cc2ccccc2)C(=O)Nc2ccccc2C1=O (stereo not given)
> 100 µM

Read the entry CCc1n[nH]c(=O)n1-n1c(C)ccc1C and write its reported TGI.
> 100 µM

Fill in TGI for record COC(=O)c1ccccc1C1CN=NC12Cc1cc3c(cc1C2=O)CCC3 (stereo not given)
> 100 µM

Return reported TGI. Input compound: O=C(CCl)N1CCN(c2ccccc2)CC1
97.2 µM

Supply reported TGI belonging to this compound: C[Si](C)(C)CCOCN(C(=O)C1=CCC2(CC1)OCCO2)c1ccccc1I
> 100 µM

// Input: COc1ccc(/C=C/C(=O)C(=O)/C=C/c2ccc(OC)c(OC)c2)cc1OC . Output its TGI only.
> 100 µM

Find the measured TGI of COC1(OC)CCC2(C)OC(c3ccccc3)C1O2 (stereo not given) and report it.
> 100 µM

Provide one value: measured TGI of C=CCc1cc(O)ccc1O
> 100 µM

Identify the reported TGI for the following entry. C=C(CN(C)C)C(=O)c1ccccc1
44.6 µM

Using known records, supply TGI for O=C1NC(=S)NC(=O)C1=Cc1ccc([N+](=O)[O-])o1
66.9 µM

Check the records and state TGI for CN1CCOC1(C)c1ccccc1 (stereo not given)
> 100 µM

Complete the entry with TGI for CCOC(=O)C(Cc1ccccc1)n1c(O)c(/C=N/c2ncc(Cc3ccc(Cl)cc3Cl)s2)sc1=S (stereo not given)
> 100 µM

Please report TGI for the following compound: COc1ncnc2c(Cl)c(C(O)c3ccccc3)c(Cl)cc12 (stereo not given)
> 100 µM

Write down TGI measured for item CN(C)CCNc1ncnc2nc(-c3ccccc3)c(-c3ccccc3)nc12
> 100 µM

Provide only the value of recorded TGI for N#CC(Cl)CS(=O)(=O)c1ccccc1 (stereo not given)
11.1 µM

Specify reported TGI for the compound shown: O=S(=O)(Cc1ccccc1)c1nnc(S(=O)(=O)c2ccc(Cl)cc2)s1
42.8 µM

In one line, give reported TGI of the entry CN(C)Cc1ccc(O)c(CN(C)C)n1 .
> 100 µM

Answer with the recorded TGI for the compound listed here: CC12CCC(=O)N1[C@@H](c1ccccc1)[C@@H](c1ccccc1)O2 (stereo not given in full)
> 100 µM

Return the recorded TGI value; entry: [CH3][Ge]([CH3])([CH2]CC#N)[S]c1ccccc1
46.5 µM

Give a short answer stating reported TGI for CSc1ncc2c(C#N)c3n(C)c4ccccc4n3c(=O)c2n1 .
> 100 µM

Recall and state the measured TGI for COC(=O)C1C(=O)C(C(=O)OC)C2CCC1N2C (stereo not given) .
> 100 µM

Provide measured TGI value, entry: CC(=O)O[C@H]1[C@@H](OC2CCCC2(c2ccccc2)c2ccccc2)O[N+]([O-])=C[C@@H]1c1ccccc1 (stereo not given in full)
6.53 µM

Name the recorded TGI of the item O=C(O)c1cc(-c2ccc(-c3ccccc3)cc2)nc2cc3ccccc3cc12 in your answer.
> 100 µM

Report TGI for CC(C)=NC(C(=O)O)C(C)(C)S (stereo not given)
> 100 µM

Give the reported value of TGI for this record: S=c1[nH]nc(COc2ccc(Cl)cc2)n1-c1ccccc1
> 100 µM

Consider the compound CC(=O)Nc1ccc2cc(C#N)c(=O)[nH]c2n1 and give its recorded TGI.
> 100 µM

Quickly give me recorded TGI for COc1ccc(CCn2ccc(C)n2)c(OC)c1
> 100 µM

Look up and report measured TGI for this entry: CC(C)N(CCNc1nc(C(Cl)(Cl)Cl)nc2cc(Cl)ccc12)C(C)C
3.4 µM

Assign TGI to the following record: Cn1ccc(S(=O)(=O)N2CCC[C@H](Nc3nccc(-c4c(-c5cccc(O)c5)nc5occn45)n3)C2)n1
> 100 µM

----------
System: OVCAR-4 ovarian
protocol details: NCI tumour cell line growth inhibition, 48 h
*1 amine or outer side, *2 acyl side, *3 side chain or, on linkers, in order; H or OH if unused. Where a SMILES comes first, the peptide text is derived from it. Bridges are numbered along the chain shown (N, C = ends). Roman numbers before positions name the chains, in order. [ ]: non-standard residue; d: D form. Actinocin(1to9) = Cc1c2oc3c(C)ccc(C(=O)[*:2])c3nc-2c(C(=O)[*:1])c(N)c1=O; NMeV = CN[CH](C(=O)O)C(C)C; Sar = CNCC(=O)O
endpoint: GI50

Identify the reported GI50 for the following entry. COc1ccc(/C=C/C(=O)C(=O)/C=C/c2ccc(OC)c(OC)c2)cc1OC
4.07 µM

Read off the recorded GI50 for CCN1C[C@@H](C)n2c(c(O)c3c(=O)n(Cc4ccc(F)c(Cl)c4)nc(C(=O)NC)c32)C1=O
3.18 µM

Note GI50 for the compound shown: Cc1cc(NS(=O)(=O)c2ccc(-c3cnc(C4CC4)o3)cc2)ccc1Cl
1.86 µM

Find the measured GI50 of CN1CCN(CCCCCOc2cc(O)c3c(=O)cc(-c4ccccc4)oc3c2)CC1 and report it.
19.1 µM

Entry CCNCCS(=O)(=O)NC[C@@]1(c2ccccc2)SC(NC(=O)C(C)(C)C)=NN1C(=O)C(C)(C)C needs its GI50 filled in; supply it.
35.5 µM

Tell me GI50 reported for CCCCNC(=O)CC1=C(C)/C(=C/c2[nH]c(-c3ccc[nH]3)cc2OC)N=C1C
2.12 µM

Give reported GI50 value for COc1ccc(CC2NC(=O)C(NC(=O)c3c4nc5c(C(=O)NC6C(=O)NC(Cc7ccc(OC)cc7)C(=O)N7CCCC7C(=O)N(C)CC(=O)N(C)C(C(C)C)C(=O)OC6C)ccc(C)c5oc-4c(C)c(=O)c3N)C(C)OC(=O)C(C(C)C)N(C)C(=O)CN(C)C(=O)C3CCCN3C2=O)cc1 (configuration not stated) (I: TY(Me)P[Sar][NMeV] / II: TY(Me)P[Sar][NMeV]; ester I:1-I:C, II:1-II:C; linker I:N-II:N via Actinocin(1to9); configuration not given here)
0.0138 µM

For the compound CCN(CC)Cc1cc(Nc2ccnc3ccc(OC)cc23)ccc1O , report GI50.
2.54 µM

Item N#C/C(=C\c1ccc(O)c(O)c1)C(=O)NCc1cccc(C(F)(F)F)c1 : provide GI50
15.1 µM

Supply measured GI50 of CN1CCC(=C(c2ccc(Cl)cc2)c2ccccn2)CC1 in your reply.
> 100 µM

Tell me measured GI50 for C=CCc1cc(O)ccc1O please.
14 µM

Hello, please tell me recorded GI50 for this one: Cc1ccc2c(-c3ccnc(Nc4cccc(C(F)(F)F)c4)n3)c(-c3ccccc3)nn2n1
12 µM

For the compound O=C1NC(=NCCc2ccccc2F)S/C1=C\c1ccc2ncccc2c1 , give its reported GI50.
6.45 µM

Look up GI50 of CC(=O)CCC[C@@H](C)[C@@H]1O[C@H]([C@@]2(C)CCC(=O)O2)CC2[C@H]1OC(=O)C21CC1 (some centres not stated) and report it.
> 100 µM

Return GI50 (reported value) for this compound: Oc1c(Cl)cc(Cl)c(Cl)c1Cc1c(O)c(Cl)cc(Cl)c1Cl
2.52 µM

Query GI50 for Cc1cc2c3c(nc4ccccc42)C(=O)c2cccnc2-c3n1
1.28 µM

Give a short answer stating reported GI50 for N#Cc1ncc(-c2ccc(C(F)(F)F)cc2)c(NC2CCCCCC2)n1 .
20.1 µM
